Catalogue of binders with associated interaction score
- Target Of Assay: T1, 4H462-bH
- T1 chain: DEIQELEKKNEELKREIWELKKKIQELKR
- Method Summary: two-hybrid library CCNG1;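 further: natural log of median RNA to DNA barcode read ratio; higher means stronger binding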
Experimental Readout: interaction score

[[record]]
binder = "DKNQELKKEIEELERENWELEKKIQELKR [4H3606-bH]"
quantitative_result = -0.116

[[record]]
binder = "DEIQELEKKIEELKRKNWELEKEIQELKR [4H370-bH]"
quantitative_result = 0.842

[[record]]
binder = "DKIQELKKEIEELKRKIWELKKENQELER [4H2667-bH]"
quantitative_result = 1.01

[[record]]
binder = "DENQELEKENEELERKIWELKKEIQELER [4H1193-bH]"
quantitative_result = -1.11

[[record]]
binder = "DKNQELKKKIEELEREIWELEKENQELER [4H3843-bH]"
quantitative_result = -0.193

[[record]]
binder = "DKIQELKKEIEELERKNWELEKEIQELKR [4H2610-bH]"
quantitative_result = 1.13

[[record]]
binder = "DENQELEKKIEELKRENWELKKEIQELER [4H1369-bH]"
quantitative_result = -1.88

